All values here come from patent US11337964B2.

# IC50 annotations
study.target: PDE4A1A (Homo sapiens)
Construct: purchased BPS 60040
Sequence (P27815 1-647 isoform P27815-4): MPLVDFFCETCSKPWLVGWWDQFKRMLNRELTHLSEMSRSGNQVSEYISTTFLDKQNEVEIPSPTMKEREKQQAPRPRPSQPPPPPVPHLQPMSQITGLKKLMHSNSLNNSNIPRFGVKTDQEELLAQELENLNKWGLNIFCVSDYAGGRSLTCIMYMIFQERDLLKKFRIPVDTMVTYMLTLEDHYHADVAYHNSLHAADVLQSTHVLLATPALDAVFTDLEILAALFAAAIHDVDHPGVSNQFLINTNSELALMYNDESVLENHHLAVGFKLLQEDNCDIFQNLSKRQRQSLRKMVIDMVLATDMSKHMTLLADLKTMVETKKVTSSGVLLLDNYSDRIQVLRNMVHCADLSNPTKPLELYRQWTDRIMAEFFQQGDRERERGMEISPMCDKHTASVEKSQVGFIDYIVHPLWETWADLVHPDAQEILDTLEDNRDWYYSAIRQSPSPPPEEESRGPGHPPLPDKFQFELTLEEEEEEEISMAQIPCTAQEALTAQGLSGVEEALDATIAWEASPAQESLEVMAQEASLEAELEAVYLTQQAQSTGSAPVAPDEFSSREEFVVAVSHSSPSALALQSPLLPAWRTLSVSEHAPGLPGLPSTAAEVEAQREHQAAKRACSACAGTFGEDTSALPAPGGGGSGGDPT
procedure.text: PDE4 activity inhibition assay, PDE4A1A
Format: biochemical
test.context: FAM-cAMP substrate, 30 minutes at room temperature

Can you share its IC50? I mean this compound: [2H]C([2H])([2H])Oc1ccc([C@@H](CS(C)(=O)=O)N2C(=O)c3c(F)ccc(NC(=O)C4CC4)c3C2=O)cc1OCC
5.1 nM

Can you share its IC50? I mean this compound: CCOc1nc(C(CS(C)(=O)=O)N2C(=O)c3cccc(NS(C)(=O)=O)c3C2=O)ccc1OC (stereo not drawn)
51.8 nM

Can you share its IC50? I mean this compound: [2H]C([2H])([2H])Oc1ccc([C@H](CS(C)(=O)=O)N2C(=O)c3cccc(NC(C)=O)c3C2=O)nc1OCC
32.6 nM

Can you share its IC50? I mean this compound: [2H]C([2H])([2H])Oc1ccc([C@@H](CS(C)(=O)=O)N2C(=O)c3c(F)ccc(NC(=O)C4CC4)c3C2=O)nc1OCC
1.3 nM

Can you share its IC50? I mean this compound: CCOc1nc([C@@H](CS(C)(=O)=O)N2C(=O)c3cc(C#N)cc(NC(C)=O)c3C2=O)ccc1OC
5.6 nM
